# Test protocol: growth inhibitors of H69AR lung tumor, primary screen, human, duplicate replicates (AID 580);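 further: 100% = mean luminescence of untreated wells and 0% = no signal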
# Recorded conditions: H69AR lung tumor cells viability, ATP luminescence, 72 h; at 10 µM; stronger effect = lower value
Returns: string. Value is yes (1) if measured viability is below 90%, and no (0) if it is greater than or equal to it.

Molecule: CCCOc1ccccc1C1CC(=O)Nc2cc3c(cc21)OCCO3 (stereo not given)
Category: yes (1)

Molecule: NC(=O)c1sc2nc3c(c(-c4ccco4)c2c1N)CCC3
Category: yes (1)

Molecule: CC(C)(C)n1nnnc1C(c1cccc(C#N)c1)N1CCC(Cc2ccccc2)CC1 (stereo not given)
Category: yes (1)

Molecule: CC1CC(C)CN(c2ncnc3c2cnn3-c2ccc(Cl)cc2)C1 (stereo not given)
Category: yes (1)

Molecule: Cc1cccc(NC(=O)c2cc(NC(=O)c3ccco3)ccc2N2CCCCC2)c1
Category: yes (1)

Molecule: COc1cccc(C(=O)NC2=NCCS2)c1
Category: no (0)

Molecule: CCCC(=O)Nc1ccccc1-c1nnn(CC(=O)Nc2ccc(OC)cc2)n1
Category: yes (1)

Molecule: CCN(CCCNC(=O)COc1cc(=O)n(CC)c2ccccc12)c1ccccc1
Category: yes (1)

Molecule: Cc1cn2c(-c3ccncc3)nnc2s1
Category: no (0)

Molecule: O=C(Nc1nc2ccc(S(=O)(=O)N3CCCC3)cc2s1)C1CCCO1 (stereo not given)
Category: no (0)

Could you now consider this next molecule?
viability strictly < 90% for this molecule? `NC(=O)c1c(NC(=O)Cc2cccs2)sc2c1CCC2`
no (0)

The reported numbers originate from PubChem BioAssay.
